# Tested on: HT29 colon
# procedureDetails: NCI tumour cell line growth inhibition, 48 h
endpoint: TGI

Exercise: Note down TGI recorded for O=C1C(=Nc2ccccc2)Oc2cc(O)ccc21
Solution: > 100 µM

Exercise: Note down TGI recorded for C[C@@H](NC1CCC[C@H]1O)c1ccccc1 (some centres not stated)
Solution: > 100 µM

Exercise: Note down TGI recorded for CS/C(=N\c1nccs1)NC(=O)c1cccc(Cl)c1
Solution: > 100 µM

Exercise: Note down TGI recorded for O=C(/C=C/c1ccc(Cl)cc1)c1cccs1
Solution: > 100 µM

Exercise: Note down TGI recorded for O=C1NC(=O)C(COCc2ccccc2)C2=C1SCCC2 (configuration not stated)
Solution: > 100 µM

Exercise: Note down TGI recorded for COCCNc1cc(NC(=O)N2CCCc3cc(CN4CCN(C)CC4=O)c(C=O)nc32)ncc1C#N
Solution: > 50 µM

====

# Test system: EKVX NSCLC
# procedureDetails: NCI tumour cell line growth inhibition, 48 h
Below, each entry is listed with its recorded TGI.

For orientation, consider the following solved cases.
- compound: "Cc1ccc2c(c1)-c1c(C#N)c(N)nc(-c3ccccc3)c1CCS2(=O)=O"
  assayTarget: "EKVX NSCLC"
  endpoint: "TGI"
  result: "> 100 µM"
- compound: "COc1cccc(C2SCC(=O)N2c2ccc(-n3c(-c4ccccc4)nc4ccccc4c3=O)cc2)c1OC (stereo unspecified)"
  assayTarget: "EKVX NSCLC"
  endpoint: "TGI"
  result: "> 100 µM"
- compound: "CC(c1ccccc1)/[N+]([O-])=C/c1ccccc1 (stereo unspecified)"
  assayTarget: "EKVX NSCLC"
  endpoint: "TGI"
  result: "> 100 µM"
- compound: "CC(C)(C)OC(=O)N/N=C(/N)Cc1ccccc1"
  assayTarget: "EKVX NSCLC"
  endpoint: "TGI"
  result: "> 100 µM"
- compound: "CC(C)C/C=C/C1=NN(c2cccc(S(=O)(=O)O)c2)C2(C1)SCC(=O)N2c1nc2ccccc2s1 (stereo unspecified)"
  assayTarget: "EKVX NSCLC"
  endpoint: "TGI"
  result: "> 100 µM"
- compound: "CC(C)C12C=CC(C)(CC1)n1c(=O)c3cc4ccccc4cc3c(=O)n12 (stereo unspecified)"
  assayTarget: "EKVX NSCLC"
  endpoint: "TGI"
  result: "> 100 µM"
- compound: "CCOP(=O)(OCC)C1=C(c2ccccc2)OC(N)=C(C#N)C1c1ccc(Cl)cc1 (stereo unspecified)"
  assayTarget: "EKVX NSCLC"
  endpoint: "TGI"
  result: "> 100 µM"
- compound: "COC(=O)[C@@]12C(=O)C(C)C(=O)[C@]1(C)C(C)=C[C@H]1[C@]3(C=O)CC[C@H](OC(C)=O)C(C)(C)[C@H]3CC[C@@]12C (stereo partly specified)"
  assayTarget: "EKVX NSCLC"
  endpoint: "TGI"
  result: "> 100 µM"
- compound: "Cc1[nH]c2ccccc2c1CCNCc1ccc(/C=C/C(=O)NO)cc1"
  assayTarget: "EKVX NSCLC"
  endpoint: "TGI"
  result: "1.5 µM"
- compound: "C=C1C(=O)O[C@H]2[C@H]3O[C@@H](C[C@@H]12)[C@@]1(C)CC[C@H](O1)C(C)=CCC[C@H]3C"
  assayTarget: "EKVX NSCLC"
  endpoint: "TGI"
  result: "3.32 µM"

# ---- query compound ----
Exercise: Note down TGI recorded for Cn1cnc(N2CCCC2)c(C#N)c1=O
Solution: > 100 µM

====

# System: NCI-H522 lung
# procedureDetails: NCI tumour cell line growth inhibition, 48 h
Below, each entry is listed with its recorded TGI.

For orientation, consider the following solved cases.
- compound: "Cc1c(Cl)cccc1NC1=C(Cl)C(=O)N(Cc2ccccc2)C1=O"
  assayTarget: "NCI-H522 lung"
  TGI: "> 100 µM"
- compound: "Nc1c(C(=O)Nc2ccccc2)sc2nc3c(cc12)CN(Cc1ccccc1)CC3"
  assayTarget: "NCI-H522 lung"
  TGI: "> 100 µM"
- compound: "CCOC(=O)c1nc(-c2ccccc2)oc1OCC"
  assayTarget: "NCI-H522 lung"
  TGI: "> 100 µM"
- compound: "CCN(CC)C(=S)N=Nc1c(O)[nH]c2ccccc12"
  assayTarget: "NCI-H522 lung"
  TGI: "14.4 µM"

Exercise: Note down TGI recorded for Cn1cc(-c2ccc(-c3cn(C)c4ccc(Cl)cc34)s2)c2cc(Cl)ccc21
Solution: > 100 µM

Exercise: Note down TGI recorded for COc1ccc(-c2c3c(nc4nc(SC)nc(SC)c24)CCCC3)cc1OC
Solution: > 100 µM

Exercise: Note down TGI recorded for COCCNc1cc(NC(=O)N2CCCc3cc(CN4CCN(C)CC4=O)c(C=O)nc32)ncc1C#N
Solution: > 50 µM

Exercise: Note down TGI recorded for CCOP(=O)(CN=C(c1ccccc1)c1ccccc1)OCC
Solution: > 100 µM

Exercise: Note down TGI recorded for CCCCCC[C@H]1C(=O)O[C@H](C)[C@H](NC(=O)c2cccc(NC=O)c2OC)C(=O)O[C@@H](C)[C@@H]1OC(=O)CC(C)C (tested in a mixture with another compound)
Solution: > 100 µM

====

# Tested on: SR leukemia
# procedureDetails: NCI tumour cell line growth inhibition, 48 h
endpoint: TGI

- compound: "C=C1C(=O)O[C@H]2[C@H]3O[C@@H](C[C@@H]12)[C@@]1(C)CC[C@H](O1)C(C)=CCC[C@H]3C"
  TGI: "0.28 µM"
- compound: "CC(C)c1ccc(Nc2nccc(-c3cnn4ncccc34)n2)cc1"
  TGI: "> 25 µM"
- compound: "O=c1[nH]c(-c2ccc(-c3nc4cc([N+](=O)[O-])ccc4c(=O)[nH]3)cc2)nc2cc([N+](=O)[O-])ccc12"
  TGI: "> 100 µM"
- compound: "COC(C)(C)CCc1[nH]c2ccccc2c1CC(=O)NCCc1cncn1C"
  TGI: "> 100 µM"
- compound: "C/C=C/[C@@H]1OC(=O)C2=C[C@@H](O)[C@@H](/C=C/C)O[C@H]21"
  TGI: "> 100 µM"
- compound: "O=C(Nc1nc(=S)c2c(ncn2CCO)[nH]1)c1ccccc1"
  TGI: "> 100 µM"
- compound: "Cc1n[nH]c(=O)n1/N=C\\CC/C=N\\n1c(C)n[nH]c1=O"
  TGI: "> 100 µM"
- compound: "c1ccc2c(c1)nc1n2C2CCC(C2)N1 (centres undefined)"
  TGI: "> 10 µM"
- compound: "S=C(Nc1cc(Cl)c(Cl)cc1Cl)SCc1ccccc1"
  TGI: "10.8 µM"
- compound: "CCCOc1nc(SCCC)nc2c1cnn2-c1ccccc1"
  TGI: "> 100 µM"

Exercise: Note down TGI recorded for C/C(CC1SCCCS1)=C(/C)CC1SCCCS1
Solution: > 100 µM

====

Below, each entry is listed with its recorded TGI.
# Test system: MALME-3M melanoma
# procedureDetails: NCI tumour cell line growth inhibition, 48 h

- compound: "CN(C)CCn1c(=O)c2ccc3c4c(nn3CCN(C)C)c3cc(O)ccc3n(c1=O)c24"
  result: "0.982 µM"
- compound: "CC(CCC(=O)O)C1CCC2C3C(O)CC4CC(O)CCC4(C)C3CC(O)C12C (centres undefined)"
  result: "> 100 µM"
- compound: "CCOP(=O)(OCC)C1=C(c2ccccc2)OC(N)=C(C#N)C1c1ccc(Cl)cc1 (centres undefined)"
  result: "> 100 µM"

# ---- query compound ----
Exercise: Note down TGI recorded for CN(C(=O)c1ccncc1)c1ccccc1
Solution: > 100 µM

====

Below, each entry is listed with its recorded TGI.
# Test system: UACC-257 melanoma
# procedureDetails: NCI tumour cell line growth inhibition, 48 h

- compound: "COC(=O)c1cc(-c2cccn2C)c2c(c1C(=O)OC)c1ccccc1n2C"
  TGI: "> 100 µM"
- compound: "O=S(=O)(O)c1ccc2c(N=Nc3ccc(F)cc3)c(O)c(S(=O)(=O)O)cc2c1"
  TGI: "> 100 µM"
- compound: "CCCCOCCOC1=CC(=O)c2c(O)ccc(O)c2C1=O"
  TGI: "2.23 µM"
- compound: "COc1ccc(C2(O)c3ccccc3C(=O)N(C)C2(O)c2ccc(OC)cc2)cc1 (configuration not stated)"
  TGI: "> 100 µM"
- compound: "CC(=O)N(CN1C(=O)CCC1C(=O)O)c1cccc(O)c1 (configuration not stated)"
  TGI: "> 100 µM"
- compound: "O=C1NC2C=CN(Cc3ccccc3)C=C2C(=O)N2CCCC12 (configuration not stated)"
  TGI: "> 100 µM"

Exercise: For UACC-257 melanoma, give TGI of the listed compound: CSC1(SC2=NCCN2)SC2(NCCN2)S1
Solution: 46.6 µM

Exercise: For UACC-257 melanoma, give TGI of the listed compound: CS/C(=N\c1nccs1)NC(=O)c1cccc(Cl)c1
Solution: > 100 µM

Exercise: For UACC-257 melanoma, give TGI of the listed compound: COc1cc(C2CC(c3ccc(N(C)C)cc3)=NN2C(C)=O)cc(OC)c1OC (configuration not stated)
Solution: > 100 µM

Exercise: For UACC-257 melanoma, give TGI of the listed compound: O=c1[nH]c(-c2ccccc2)nc2c1sc1nc3ccccc3n12
Solution: > 100 µM

Exercise: For UACC-257 melanoma, give TGI of the listed compound: COc1cc2c(cc1OC)C(C)N(C)c1c-2c(OC(C)=O)cc2cc(OC)c(OC)cc12 (configuration not stated)
Solution: 24.2 µM

Exercise: For UACC-257 melanoma, give TGI of the listed compound: CC(C)C[C@H](NC(=O)[C@@H](O)[C@H](N)Cc1ccc([N+](=O)[O-])cc1)C(=O)O
Solution: > 25 µM

Exercise: For UACC-257 melanoma, give TGI of the listed compound: CS/C(C)=N/OC(=O)NCCCCNc1ccc(N=[N+]=[N-])cc1
Solution: > 100 µM

Exercise: For UACC-257 melanoma, give TGI of the listed compound: Nc1n[nH]c2cccc(C#Cc3cccc(C(=O)Nc4cc(CN5CCOCC5)cc(C(F)(F)F)c4)c3)c12
Solution: 18.1 µM

Exercise: For UACC-257 melanoma, give TGI of the listed compound: CCOC(=O)c1nc(Nc2ccc(Cl)cc2)c2ccccc2n1
Solution: 30.6 µM

Exercise: For UACC-257 melanoma, give TGI of the listed compound: CCOP(=O)(CN=C(c1ccccc1)c1ccccc1)OCC
Solution: > 100 µM

Exercise: For UACC-257 melanoma, give TGI of the listed compound: CCCCNC(=O)NS(=O)(=O)c1ccc(N2N=C(c3cc(C)ccc3C)CC2c2cc(OC)c(OC)c(OC)c2)cc1 (configuration not stated)
Solution: 12.9 µM

Origin of values: PubChem BioAssay (NCI)
